Just for reference, patent US12491185B2 is where these values come from.

# System: mPTP
# Measurement notes: mPTP activity (Ca2+ retention) assay in isolated rat liver mitochondria
# Type: biochemical
# Condition parameters: examples tested by different contract research organisations, believed comparable
Value type: mPTP Rat liver pIC50
# print the numeric value only

Worked examples, 3 compounds total:
{"columns": ["Compound", "Target", "Assay value"],
 "data": [
  ["O=C(NCC1(Cc2ccccc2)CCC1)c1cncc(O)c1 [Example 1]", "mPTP", 6.10],
  ["Cn1nc(C(=O)NCC2CCc3ccccc3C2)[nH]c1=O (centres unmarked) [Example 60]", "mPTP", 5.10],
  ["CC[C@@H](Cc1ccccc1)[C@H](C)NC(=O)c1nn(C)c(=O)[nH]1 [Example 74]", "mPTP", 5.98]
]}

# ---- query compound ----
Incoming: I have this compound here, O=C(NC[C@H](Cc1cc(F)ccc1F)C1CC1)c1nccc(=O)[nH]1 [Example 153] , and I need its recorded mPTP Rat liver pIC50.
Outgoing: 6.22

* * *

Reported mPTP Rat liver pIC50 values are given for each entry in this list.
# Tested on: mPTP
# Measurement notes: mPTP activity (Ca2+ retention) assay in isolated rat liver mitochondria
# Assay type: biochemical
# Condition parameters: examples tested by different contract research organisations, believed comparable
The answer should be a number; do not append a unit.

Incoming: Which mPTP Rat liver pIC50 is reported for this compound? CCC(F)(CNC(=O)c1nn(C)c(=O)[nH]1)Cc1ccc(F)cc1F (centres unmarked)
Outgoing: 6.45

Incoming: Data request, read-out mPTP Rat liver pIC50, for Cn1nc(C(=O)NC[C@H](Cc2ccc(F)c(F)c2)C2CC2)[nH]c1=S [Example 118]
Outgoing: 6.26

* * *

# System: mPTP
# Measurement notes: mPTP activity (Ca2+ retention) assay in isolated rat liver mitochondria
# Type: biochemical
# Condition parameters: examples tested by different contract research organisations, believed comparable
Value type: mPTP Rat liver pIC50
Respond with the number and no other words.

Reference set (2 entries):
{"columns": ["Compound", "Target", "mPTP Rat liver pIC50"],
 "data": [
  ["CC[C@@H](Cc1ccc(F)cc1F)C(C)NC(=O)c1nn(C)c(=O)[nH]1 (stereo partly shown) [Example 141]", "mPTP", 6.44],
  ["Cn1nc(C(=O)NC[C@H](Cc2ccc(F)c(F)c2)C2CC2)[nH]c1=S [Example 119]", "mPTP", 5.9]
]}

# ---- query compound ----
Incoming: Fill in: mPTP Rat liver pIC50 of CC(CNC(=O)c1noc(=O)[nH]1)(Cc1ccc(F)cc1)C1CC1 (single isomer, unassigned) [Example 275] is ___
Outgoing: 6.75

* * *

# System: mPTP
# Measurement notes: mPTP activity (Ca2+ retention) assay in isolated rat liver mitochondria
# Assay type: biochemical
# Condition parameters: examples tested by different contract research organisations, believed comparable
Value type: mPTP Rat liver pIC50
// no unit, no text: just the number

Recorded results for 5 compounds are shown here.
{"columns": ["Compound", "Assay value"],
 "data": [
  ["CN(CC1(Cc2ccccc2)CCC1)C(=O)c1cncc(O)n1", 5.18],
  ["CC(c1ccccc1)C1(CNC(=O)c2nn(C)c(=O)[nH]2)CCC1 (single isomer, unassigned) [Example 27]", 5.49],
  ["O=C(NC[C@H](Cc1ccc(F)cc1F)C1CC1)c1cncc(=O)[nH]1 [Example 154]", 5.54],
  ["CC(CNC(=O)c1noc(=O)[nH]1)(Cc1ccc(F)cc1)C1CC1 (single isomer, unassigned) [Example 276]", 5.82],
  ["CCn1nc(C(=O)NCC2(Cc3ccccc3)CCC2)[nH]c1=O", 5.63]
]}

Turning now to a further compound:
Incoming: Form entry - test system: mPTP; read-out: mPTP Rat liver pIC50; compound: `O=C(NCC1(Cc2cc(F)ccc2F)CCC1)c1cncc(=O)[nH]1`
Outgoing: 6.29

* * *

# Tested on: mPTP
# Measurement notes: mPTP activity (Ca2+ retention) assay in isolated rat liver mitochondria
# Type: biochemical
# Condition parameters: examples tested by different contract research organisations, believed comparable
Catalogue of compounds with associated mPTP Rat liver pIC50
Form: value (number only, do not type unit).

In the examples that follow, each entry is paired with its recorded mPTP Rat liver pIC50.
{"columns": ["Compound", "Target", "mPTP Rat liver pIC50"],
 "data": [
  ["CC(CNC(=O)c1ncc(Cl)c(=O)[nH]1)(Cc1ccc(F)cc1)C1CC1 (single isomer, unassigned) [Example 263]", "mPTP", 6.54],
  ["Cn1nc(C(=O)NCC(Cc2ccc(F)cc2F)C2CC2)[nH]c1=O (centres unmarked)", "mPTP", 6.58],
  ["O=C(NCC1(Cc2ccc(F)cc2F)CCC1)c1nccc(=O)[nH]1", "mPTP", 6.28],
  ["O=C(NC[C@H](Cc1ccc(F)cc1F)C1CC1)c1cncc(=O)[nH]1 [Example 149]", "mPTP", 6.32],
  ["Cn1nc(C(=O)NC[C@@H](Cc2ccc(F)cc2F)CC(F)(F)F)[nH]c1=O", "mPTP", 4.56]
]}

Now for the compound whose mPTP Rat liver pIC50 we want.
Incoming: Can you look up the measured mPTP Rat liver pIC50 of `Cn1nc(C(=O)NC[C@H](Cc2ccc(F)cc2)C2CC2)[nH]c1=O` for me?
Outgoing: 7.31

* * *

Each entry below lists one item and its recorded mPTP Rat liver pIC50 value.
# Test system: mPTP
# Measurement notes: mPTP activity (Ca2+ retention) assay in isolated rat liver mitochondria
# Assay type: biochemical
# Condition parameters: examples tested by different contract research organisations, believed comparable
Enter the number alone.

{"columns": ["Compound", "Value type", "Assay value"],
 "data": [
  ["CC(C)[C@@H](CNC(=O)c1nn(C)c(=O)[nH]1)Cc1ccccc1 (single isomer, unassigned) [Example 46A]", "mPTP Rat liver pIC50", 4.71],
  ["O=C(NC[C@H](Cc1ccc(F)c(F)c1)C1CC1)c1noc(=O)[nH]1", "mPTP Rat liver pIC50", 6.48],
  ["Cc1cnc(C(=O)NCC(C)(Cc2ccc(F)cc2F)C2CC2)[nH]c1=O (stereo not shown)", "mPTP Rat liver pIC50", 5.95],
  ["O=C(NCC1(Cc2ccccc2)CCC1)c1cnn[nH]1", "mPTP Rat liver pIC50", 5.61],
  ["O=C(NC[C@H](Cc1ccc(F)c(F)c1)C1CC1)c1cncc(=O)[nH]1 [Example 151]", "mPTP Rat liver pIC50", 5.88],
  ["Cn1nc(C(=O)NCC(C)(Cc2ccc(F)cc2F)C2CC2)[nH]c1=O (single isomer, unassigned) [Example 240]", "mPTP Rat liver pIC50", 6.91]
]}

Incoming: What measured mPTP Rat liver pIC50 goes with `CSc1ccccc1CC1(CNC(=O)c2nn(C)c(=O)[nH]2)CCC1` ?
Outgoing: 5.66

Incoming: For the compound shown here, CC(NC(=O)c1nn(C)c(=O)[nH]1)C(C)(C)Cc1ccccc1 (stereo not shown) [Example 38] , give the reported mPTP Rat liver pIC50.
Outgoing: 6.14

Incoming: # get_value(readout='mPTP Rat liver pIC50', item= `O=C(NC[C@H](Cc1c(F)cccc1F)C1CC1)c1nccc(=O)[nH]1` )
Outgoing: 5.26

Incoming: I have this compound here, `Cn1nc(C(=O)NCC2(Cc3ccc(F)c(F)c3)CCC2)[nH]c1=O` , and I need its recorded mPTP Rat liver pIC50.
Outgoing: 7.04

Incoming: // query mPTP Rat liver pIC50 value for entry `Cn1nc(C(=O)NCC2(Cc3ccc(F)cc3F)CCCCC2)[nH]c1=O`
Outgoing: 5.84

Incoming: Reported mPTP Rat liver pIC50 for CC(c1ccc(F)cc1F)[C@@H](CNC(=O)c1nccc(=O)[nH]1)C1CC1 (single isomer, unassigned) [Example 226] : what is it?
Outgoing: 4.52

Incoming: Fill in the blank: the reported mPTP Rat liver pIC50 of `Cn1nc(C(=O)NC[C@H](Cc2ccc(F)cc2F)C2CC2)[nH]c1=O` is ____.
Outgoing: 6.76

Incoming: Request the reported mPTP Rat liver pIC50 associated with `Cc1cccc(CC2(CNC(=O)c3nn(C)c(=O)[nH]3)CCC2)c1`
Outgoing: 6.05

Incoming: Which mPTP Rat liver pIC50 value is on record for `Cc1ccccc1CC1(CNC(=O)c2nn(C)c(=O)[nH]2)CCC1` ?
Outgoing: 6.34

Incoming: What mPTP Rat liver pIC50 value was documented for this compound, `Cn1nc(C(=O)NCC2(Cc3cc(F)ccc3F)CCC2)[nH]c1=O` ?
Outgoing: 6.85

Incoming: Field request: mPTP Rat liver pIC50 | item: Cn1nc(C(=O)NCC2(Cc3ccc(F)cc3F)CC23CC3)[nH]c1=O (single isomer, unassigned) [Example 232]
Outgoing: 6.65

Incoming: Field request: mPTP Rat liver pIC50 | item: Cn1nc(C(=O)NCC2(Cc3ccc(F)cc3F)CCCO2)[nH]c1=O (single isomer, unassigned) [Example 230]
Outgoing: 6.18

Incoming: Quick check: mPTP Rat liver pIC50 of `O=C(NCC1(Cc2cccc(F)c2)CCC1)c1cncc(O)n1` ?
Outgoing: 4.56

Incoming: Any idea what its mPTP Rat liver pIC50 is? The compound is O=C(NCC1(Cc2ccc(F)cc2F)CC12CC2)c1noc(=O)[nH]1 (single isomer, unassigned) [Example 234]
Outgoing: 5.24

Incoming: Please look up its mPTP Rat liver pIC50: `O=C(NC[C@H](Cc1cc(F)ccc1F)C1CC1)c1cncc(=O)[nH]1`
Outgoing: 5.33

Incoming: Look up mPTP Rat liver pIC50: CC[C@@H](Cc1ccccc1)C(C)NC(=O)c1nn(C)c(=O)[nH]1 (stereo partly shown)
Outgoing: 6.52

Incoming: Recorded mPTP Rat liver pIC50 for `Cn1nc(C(=O)NC[C@H](Cc2ccc(F)cc2Cl)C2CC2)[nH]c1=O` , please?
Outgoing: 6.81

Incoming: So what does the record say about mPTP Rat liver pIC50 for `Cn1nc(C(=O)NC[C@H](Cc2c(F)cc(F)cc2F)C2CC2)[nH]c1=O` ?
Outgoing: 6.47

Incoming: Entry CC(c1ccc(F)cc1F)[C@@H](CNC(=O)c1nn(C)c(=O)[nH]1)C1CC1 (stereo partly shown) [Example 238] has what mPTP Rat liver pIC50?
Outgoing: 5.15

Incoming: What measured mPTP Rat liver pIC50 goes with CC(CNC(=O)c1nccc(=O)[nH]1)(Cc1ccc(F)cc1)C1CC1 (single isomer, unassigned) [Example 251] ?
Outgoing: 6.21

Incoming: Quick one: mPTP Rat liver pIC50 of Cn1nc(C(=O)NCC2(Cc3ccc(F)cc3F)CCCO2)[nH]c1=O (stereo not shown) [Example 120] ?
Outgoing: 6.51

Incoming: // lookup mPTP Rat liver pIC50 for O=C(NCC1(Cc2ccc(F)cc2F)CC(F)C1)c1nccc(=O)[nH]1 (stereo not shown) [Example 215]
Outgoing: 6.34

Incoming: Give the measured mPTP Rat liver pIC50 of CC(CNC(=O)c1nn(C)c(=O)[nH]1)Cc1ccccc1 (stereo not shown) .
Outgoing: 5.76
